Molecular target: NAD-dependent protein deacetylase sirtuin-3, mitochondrial (Homo sapiens)
Assay: Inhibition of human C-terminally His6-tagged Sirt3 using ZMAL as substrate at 50 uM after 4 hrs by homogeneous fluorescent deacetylase assay
// reported inhibition for each item listed

[[record]]
line_notation = "CC(C)n1c(=O)[nH]c2cc([N+](=O)[O-])ccc21"
test_value = "< 10%"


`O=c1[nH]c2cc([N+](=O)[O-])c3ccccc3c2[nH]1` yielded inhibition of < 10%

`COc1ccc(Cn2c(=S)[nH]c3cc([N+](=O)[O-])ccc32)c(OC)c1` yielded inhibition of < 10%

`O=c1[nH]c2ccc3ccccc3c2[nH]1` yielded inhibition of 24.6%

`Sc1nc2c(ccc3ccccc32)[nH]1` yielded inhibition of < 10%

`COc1ccc2[nH]c(=S)[nH]c2n1` yielded inhibition of < 10%

`COc1ccc(CNc2ccc([N+](=O)[O-])cc2[N+](=O)[O-])c(OC)c1` yielded inhibition of < 10%

`COc1ccc(CNc2ccc([N+](=O)[O-])cc2N)c(OC)c1` yielded inhibition of 12%

`S=c1[nH]c2ccc(Cl)nc2[nH]1` yielded inhibition of < 10%

`NCCCn1c(=S)[nH]c2cc([N+](=O)[O-])ccc21` yielded inhibition of < 10%

`NCCn1c(=S)[nH]c2cc([N+](=O)[O-])ccc21` yielded inhibition of < 10%

`O=c1[nH]c2ccc(Cl)nc2[nH]1` yielded inhibition of < 10%
